Tested on: HSV-1
experiment: HSV antiviral (ELISA) assay in Vero cells
Format: cell-based, herpes simplex virus type 1
test.settings: Human alphaherpesvirus 1; HSV-1 in Vero cells; read-out: IC50 (ug/ml) HSV
Consider the following compounds; for each one, report its IC50.
Report as a plain number; the unit µg/mL is understood.

Q. Entry Cc1cc(NC(=S)NC(C)c2ccc(F)cc2)ccc1NC(=O)c1cc2ccccc2cn1 (stereo not shown) [Example 1074] : reported IC50 = ?
A. 5.8

Q. Entry CC(NC(=S)Nc1ccc(NC(=O)c2ccccc2F)c(C(F)(F)F)c1)c1ccc(C#N)cc1 (stereo not shown) [Example 1036] : reported IC50 = ?
A. 4

Q. Entry COc1cc(OC)c(NC(=S)Nc2ccc(NC(=O)c3ccccc3F)c3ccccc23)cc1Cl [Example 325] : reported IC50 = ?
A. 1

Q. Entry CC(NC(=S)Nc1ccc(NC(=O)c2cc3ccccc3cn2)c(C#N)c1)c1ccc(F)cc1 (stereo not shown) [Example 1071] : reported IC50 = ?
A. 9

Q. Entry COc1cc(OC)c(NC(=S)Nc2ccc(NC(=O)c3ccccc3F)cc2OC)cc1Cl [Example 389] : reported IC50 = ?
A. 0.04

Q. Entry CC(NC(=S)Nc1cc(Br)c(NC(=O)c2ccccc2F)c(Br)c1)c1ccc(F)cc1 (stereo not shown) [Example 1033] : reported IC50 = ?
A. 7

Q. Entry Cc1cc(NC(=S)NC(C)c2ccc(F)cc2)ccc1NC(=O)c1ccccc1F (stereo not shown) [Example 1045] : reported IC50 = ?
A. 6.2

Taken from patent EP1137632B1.
